- particulars: in methanol, 283.15 K
metric_name: solubility (mole fraction)

- COC(=O)Nc1nc2ccccc2[nH]1: 4.07e-05

###

- particulars: in n-propanol, 298.15 K
metric_name: solubility (mole fraction)

• COC(=O)Nc1nc2ccccc2[nH]1 = 1.85e-05

###

- particulars: in methanol, 288.15 K
metric_name: solubility (mole fraction)

* COC(=O)Nc1nc2ccccc2[nH]1 | 5.29e-05

###

- particulars: in water, 293.15 K
metric_name: solubility (mole fraction)

- COC(=O)Nc1nc2ccccc2[nH]1: 6e-07

###

- particulars: in DMF, 293.15 K
metric_name: solubility (mole fraction)

- COC(=O)Nc1nc2ccccc2[nH]1: 0.00101
